The entries below come with measured % Inhibition @ Concentration 1 uM values attached.
System: AMPA-R
assay_name: [3H]AMPA radioligand binding assay on rat brain synaptic membranes;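 also: competition binding in which test compounds at rising concentrations displace [3H]AMPA from AMPA-R on rat brain synaptic membranes, with reduced bound radioligand as read-out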
condition_details: Table 8, 1 uM
e = 2'-O-(2-methoxyethyl) (MOE); k = constrained ethyl (cEt); d = 2'-deoxy (DNA); m = 2'-O-methyl; f = 2'-fluoro
Enter the number, and then the unit.

Example cases with answers are listed next.
ASGSCMAFCFUFUMUSAM [RG-NG-1038]
25.4%
ASGSCMAFCFUFUMUSGD [RG-NG-1033]
80.9%
ASGSCMAFCFUFUMUSIM [RG-NG-1035]
46.3%
ASGSCMAFCFUFUMUSED [RG-NG-1039]
27%
ASGSCMAFCFUFUMUSAS [RG-NG-1015]
−10.3%
ASGSCMAFCFUFUMUSGM [RG-NG-1034]
44.8%
ASGSCMAFCFUFUMUSNM [RG-NG-1036]
11.3%
GSCEAECETEGSTEADASGSCMAFCFUFUMUSGS (GCACTGTAAGCACUUUG; sugars from the 5' end keeeekedkkmfffmkk, backbone and methylation of C not given here) [RG-NG-1032]
43.8%

Answer with the recorded % Inhibition @ Concentration 1 uM for the sequence listed here: ASCSAMAFUFGFCMASCS [RG5124, reference compound]
−0.6%

Answer with the recorded % Inhibition @ Concentration 1 uM for the sequence listed here: ASGSCSASCSUSUSUSGS [RG-NG-1001]
81.3%

Answer with the recorded % Inhibition @ Concentration 1 uM for the sequence listed here: ASGSCMAFCFUFUMUSGS [RGLS4326, reference compound]
40.8%

Answer with the recorded % Inhibition @ Concentration 1 uM for the sequence listed here: ASGSCMAFCFUFUMUSDM [RG-NG-1037]
9.2%

Answer with the recorded % Inhibition @ Concentration 1 uM for the sequence listed here: CETEGSCEAECETEGSTEADASGSCMAFCFUFUMUSGS (CTGCACTGTAAGCACUUUG; sugars from the 5' end eekeeeekedkkmfffmkk, backbone and methylation of C not given here) [RG-NG-1040]
14.4%
